target: Fuc(a1-2)Gal(b1-3)[Fuc(a1-4)]GlcNAc(b1-3)[Fuc(a1-3)[Gal(b1-4)]GlcNAc(b1-6)]Gal(b1-4)Glc; experiment: glycan array binding signal (z-score within array); higher = stronger binding; conditions: glycan notation: IUPAC condensed, linker removed
This excerpt belongs to a sample that is enriched for the strongest signals.
property: glycan array binding signal (z-score)
Just the number, please, no unit attached.

Record excerpt, results attached:
INSERT INTO assay_data (binder, property, value) VALUES
  ('Epa2 (Candida glabrata) (protein) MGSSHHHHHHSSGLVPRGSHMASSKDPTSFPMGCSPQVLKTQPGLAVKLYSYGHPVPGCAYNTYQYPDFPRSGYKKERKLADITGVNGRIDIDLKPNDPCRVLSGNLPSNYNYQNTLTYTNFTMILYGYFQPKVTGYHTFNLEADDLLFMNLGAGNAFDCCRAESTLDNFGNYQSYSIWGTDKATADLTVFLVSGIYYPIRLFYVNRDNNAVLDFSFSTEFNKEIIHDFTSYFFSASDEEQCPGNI', 'glycan array binding signal (z-score)', 0.365),
  ('HBHA-Rv (Mycobacterium tuberculosum), P0A5P6 (protein) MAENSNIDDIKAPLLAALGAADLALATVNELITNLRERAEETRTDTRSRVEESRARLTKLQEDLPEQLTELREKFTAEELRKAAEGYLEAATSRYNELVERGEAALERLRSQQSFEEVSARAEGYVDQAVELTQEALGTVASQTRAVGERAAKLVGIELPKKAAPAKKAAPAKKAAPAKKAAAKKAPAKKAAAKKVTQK', 'glycan array binding signal (z-score)', -0.277),
  ('GNAT (Pseudomonas aeruginosa), Q9HV14 (protein) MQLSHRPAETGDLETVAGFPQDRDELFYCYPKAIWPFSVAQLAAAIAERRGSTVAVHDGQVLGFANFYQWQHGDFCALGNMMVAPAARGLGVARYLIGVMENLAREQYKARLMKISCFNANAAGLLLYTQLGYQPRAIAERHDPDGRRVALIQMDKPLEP', 'glycan array binding signal (z-score)', -0.247),
  ('Epf (Streptococcus pyogenes) (protein) GDHGPEFNGVMVVKAAEAEELPDDLMNFKGTWEVSADGSSGRFFSKGATDSYVFHLIPAKDVKKPGWREHNEVKDSYIKIDKQSIAARYKTSTTAPYSVAFKVNTKSLIKDHDYKITFEQGQIASGITVDYRIGSAFNKTTDDSFKISDESKYASNVKIEGEEQGFKQREQGDKTISFRTLKEGPMSLVLLSKVEKKPQGDLDVEFKNLKIIDVTNPSQLDKGVAYVGNKNVQLTLKSDDGRTNFEGDEISLFNSRGELLQTVTVTKDQQNPISITLSEDQAKSLKNKEKLKVSIKQKQSKKTSKDFFFEVGIDPKVEAKQKEKLLELDKVKKQIEDSINGDAWLPEKPVDLQGDHGLSAWSHPQFEK', 'glycan array binding signal (z-score)', 3.33);

Now for the binder whose glycan array binding signal (z-score) we want.
(Q) Would you kindly share the measured glycan array binding signal (z-score) for Epa13 (Candida glabrata) (protein) MGSSHHHHHHSSGLVPRGSHMASDSSENGYAHGCSPSIRAKLKPGLSMEIYSYALRPTDDHCWDSAYLDPMFPRTGYLTHKLLGKAEGIIGPLNFLAKNPACIPAVSTLPLAFHFPKPFTITNFTMLLYGYLSPKKTGKYTFKLLADDLLLMNFGADNAFDCCSHDATKDNIGEYVAYSVWPGVNKNVTVYLESGIYYPLRLFFNNRDAIAQLDFAYYFNDSPIRQTDFSGMFFSIPDSVKCPANI ?
(A) -0.604
